# assay explanation: Pharmacokinetics after single-dose intragastric administration in beagle dogs
# Format: in vivo
# reported conditions: both sexes, dog, plasma, po, S-IG 1.25 mg/kg
measurement name: CL/F
Answer with the figure and its unit, nothing else.

Just so you know, measured CL/F for CC1(C)OC2CC(=O)OCC23C1C/C(=N\OCCN1CCOCC1)C1(C)C3CC[C@@]2(C)[C@H](c3ccoc3)OC(=O)C3OC312 (stereo partly shown) [HY-071085] came out at 517 mL/min/kg

====

# assay explanation: Pharmacokinetics after single-dose intragastric administration in beagle dogs
# Format: in vivo
# reported conditions: both sexes, dog, plasma, po, S-IG 1.25 mg/kg
measurement name: Tmax (min)
Number only, in min; omit the unit.

Just so you know, measured Tmax for CC1(C)OC2CC(=O)OCC23C1C/C(=N\OCCN1CCOCC1)C1(C)C3CC[C@@]2(C)[C@H](c3ccoc3)OC(=O)C3OC312 (stereo partly shown) [HY-071085] came out at 29.4

====

# assay explanation: Pharmacokinetics after repeated-dose intragastric administration in rats
# Type: in vivo, Sprague Dawley rats
# reported conditions: Sprague-Dawley, rat, plasma, po; female rats, R-IG 6.5 mg/kg, 28 days
measurement name: half-life at 28 days (h)
Number only, in h; omit the unit.

Just so you know, measured half-life at 28 days for CC1(C)OC2CC(=O)OCC23C1C/C(=N\OCCN1CCOCC1)C1(C)C3CC[C@@]2(C)[C@H](c3ccoc3)OC(=O)C3OC312 (stereo partly shown) [HY-071085] came out at 1.75

====

# assay explanation: Pharmacokinetics after repeated-dose intragastric administration in rats
# Type: in vivo, Sprague Dawley rats
# reported conditions: Sprague-Dawley, rat, plasma, po; female rats, R-IG 6.5 mg/kg, 14 days
measurement name: Tmax at 14 days
Answer with the figure and its unit, nothing else.

Just so you know, measured Tmax at 14 days for CC1(C)OC2CC(=O)OCC23C1C/C(=N\OCCN1CCOCC1)C1(C)C3CC[C@@]2(C)[C@H](c3ccoc3)OC(=O)C3OC312 (stereo partly shown) [HY-071085] came out at 40.8 min

====

# assay explanation: Pharmacokinetics after single-dose intragastric administration in beagle dogs
# Type: in vivo
# reported conditions: both sexes, dog, plasma, po, S-IG 1.25 mg/kg
# Procedure: Male and female beagle dogs were administered low (1.25 mg/kg), medium (2.5 mg/kg) and high (5 mg/kg) doses of HY-071085 by gastric gavage, and blood samples were collected from the forelimb vein at various time points before and 8 h after administration in order to analyze the concentration of HY-071085 in the plasma. […] According to the obtained plasma concentration time data, the pharmacokinetic parameters were calculated using Phoenix WinNonlin 8.1 software. […]
measurement name: half-life (min)
Number only, in min; omit the unit.

Just so you know, measured half-life for CC1(C)OC2CC(=O)OCC23C1C/C(=N\OCCN1CCOCC1)C1(C)C3CC[C@@]2(C)[C@H](c3ccoc3)OC(=O)C3OC312 (stereo partly shown) [HY-071085] came out at 52.8

====

# assay explanation: Pharmacokinetics after single-dose intravenous administration in rats
# Assay type: in vivo, Sprague Dawley rats
# reported conditions: Sprague Dawley, rat, plasma; female rats, S-IV 3.25 mg/kg
measurement name: AUC(0-inf) (µg·h/mL)
Number only, in µg·h/mL; omit the unit.

Just so you know, measured AUC(0-inf) for CC1(C)OC2CC(=O)OCC23C1C/C(=N\OCCN1CCOCC1)C1(C)C3CC[C@@]2(C)[C@H](c3ccoc3)OC(=O)C3OC312 (stereo partly shown) came out at 0.684

====

# assay explanation: Pharmacokinetics after single-dose intravenous administration in rats
# Type: in vivo, Sprague Dawley rats
# reported conditions: Sprague Dawley, rat, plasma; female rats, S-IV 3.25 mg/kg; read-out: AUC0-tn
measurement name: AUC (ng·h/mL)
Number only, in ng·h/mL; omit the unit.

Just so you know, measured AUC for CC1(C)OC2CC(=O)OCC23C1C/C(=N\OCCN1CCOCC1)C1(C)C3CC[C@@]2(C)[C@H](c3ccoc3)OC(=O)C3OC312 (stereo partly shown) came out at 682

====

# assay explanation: Pharmacokinetics after single-dose intravenous administration in beagle dogs
# Format: in vivo
# reported conditions: both sexes, dog, plasma, S-IV 1.25 mg/kg, read-out: AUC0-tn
measurement name: AUC (ng·h/mL)
Number only, in ng·h/mL; omit the unit.

Just so you know, measured AUC for CC1(C)OC2CC(=O)OCC23C1C/C(=N\OCCN1CCOCC1)C1(C)C3CC[C@@]2(C)[C@H](c3ccoc3)OC(=O)C3OC312 (stereo partly shown) came out at 591

====

# assay explanation: Pharmacokinetics after single-dose intragastric administration in rats
# Assay type: in vivo, Sprague Dawley rats
# reported conditions: Sprague Dawley, rat, plasma, po; female rats, S-IG 6.5 mg/kg
measurement name: MRT (h)
Number only, in h; omit the unit.

Just so you know, measured MRT for CC1(C)OC2CC(=O)OCC23C1C/C(=N\OCCN1CCOCC1)C1(C)C3CC[C@@]2(C)[C@H](c3ccoc3)OC(=O)C3OC312 (stereo partly shown) came out at 2.57

====

# assay explanation: Pharmacokinetics after single-dose intragastric administration in rats
# Assay type: in vivo, Sprague Dawley rats
# reported conditions: Sprague-Dawley, rat, plasma, po; female rats, S-IG 13 mg/kg
measurement name: half-life (min)
Number only, in min; omit the unit.

Just so you know, measured half-life for CC1(C)OC2CC(=O)OCC23C1C/C(=N\OCCN1CCOCC1)C1(C)C3CC[C@@]2(C)[C@H](c3ccoc3)OC(=O)C3OC312 (stereo partly shown) [HY-071085] came out at 54

====

# assay explanation: Pharmacokinetics after single-dose intragastric administration in beagle dogs
# Assay type: in vivo
# reported conditions: both sexes, dog, plasma, po, S-IG 5 mg/kg, read-out: AUC0-tn
measurement name: AUC (ng·h/mL)
Number only, in ng·h/mL; omit the unit.

Just so you know, measured AUC for CC1(C)OC2CC(=O)OCC23C1C/C(=N\OCCN1CCOCC1)C1(C)C3CC[C@@]2(C)[C@H](c3ccoc3)OC(=O)C3OC312 (stereo partly shown) came out at 606

====

# assay explanation: Pharmacokinetics after single-dose intravenous administration in rats
# Format: in vivo, Sprague Dawley rats
# reported conditions: Sprague Dawley, rat, plasma; male rats, S-IV 3.25 mg/kg; read-out: AUC0-tn
measurement name: AUC
Answer with the figure and its unit, nothing else.

Just so you know, measured AUC for CC1(C)OC2CC(=O)OCC23C1C/C(=N\OCCN1CCOCC1)C1(C)C3CC[C@@]2(C)[C@H](c3ccoc3)OC(=O)C3OC312 (stereo partly shown) [HY-071085] came out at 739 ng·h/mL

====

# assay explanation: Pharmacokinetics after repeated-dose intragastric administration in rats
# Type: in vivo, Sprague Dawley rats
# reported conditions: female, Sprague Dawley, rat, plasma, po, 6.5 mg/kg, female rats, R-IG 6.5 mg/kg, 28 days
measurement name: AUC(0-inf)

Just so you know, measured AUC(0-inf) for CC1(C)OC2CC(=O)OCC23C1C/C(=N\OCCN1CCOCC1)C1(C)C3CC[C@@]2(C)[C@H](c3ccoc3)OC(=O)C3OC312 (stereo partly shown) [HY-071085] came out at 70.2 ng·h/mL

====

# assay explanation: Plasma protein binding, dog plasma
# Assay type: in vitro ADME
# reported conditions: 100 ng/mL, mean, read-out: plasma protein binding rate (converted)
measurement name: fraction unbound at 100 ng/mL
Output spec: single numeric token, no unit.

Just so you know, measured fraction unbound at 100 ng/mL for CC1(C)OC2CC(=O)OCC23C1C/C(=N\OCCN1CCOCC1)C1(C)C3CC[C@@]2(C)[C@H](c3ccoc3)OC(=O)C3OC312 (stereo partly shown) [HY-071085] came out at 0.671

====

# assay explanation: Pharmacokinetics after repeated-dose intragastric administration in rats
# Format: in vivo, Sprague Dawley rats
# reported conditions: Sprague Dawley, rat, plasma, po; male rats, R-IG 6.5 mg/kg, 28 days
measurement name: CL/F at 28 days (mL/min/kg)
Number only, in mL/min/kg; omit the unit.

Just so you know, measured CL/F at 28 days for CC1(C)OC2CC(=O)OCC23C1C/C(=N\OCCN1CCOCC1)C1(C)C3CC[C@@]2(C)[C@H](c3ccoc3)OC(=O)C3OC312 (stereo partly shown) came out at 1860

====

# assay explanation: Pharmacokinetics after single-dose intragastric administration in beagle dogs
# Format: in vivo
# reported conditions: both sexes, dog, plasma, po, S-IG 5 mg/kg
measurement name: Cmax (ng/mL)
Number only, in ng/mL; omit the unit.

Just so you know, measured Cmax for CC1(C)OC2CC(=O)OCC23C1C/C(=N\OCCN1CCOCC1)C1(C)C3CC[C@@]2(C)[C@H](c3ccoc3)OC(=O)C3OC312 (stereo partly shown) [HY-071085] came out at 436

====

# assay explanation: Pharmacokinetics after repeated-dose intragastric administration in rats
# Type: in vivo, Sprague Dawley rats
# reported conditions: Sprague-Dawley, rat, plasma, po; male rats, R-IG 6.5 mg/kg, 14 days
measurement name: MRT at 14 days (h)
Number only, in h; omit the unit.

Just so you know, measured MRT at 14 days for CC1(C)OC2CC(=O)OCC23C1C/C(=N\OCCN1CCOCC1)C1(C)C3CC[C@@]2(C)[C@H](c3ccoc3)OC(=O)C3OC312 (stereo partly shown) came out at 2.26
